The values you see were collected from BindingDB's records for doi:10.1074/jbc.M111.274068.

molecular target: Bifunctional protein GlmU (Streptococcus pneumoniae (strain ATCC BAA-255 / R6), UniProt Q8DQ18); assay: Inhibition Assay; conditions: pH 7.35
Sequence (Q8DQ18 whole entry): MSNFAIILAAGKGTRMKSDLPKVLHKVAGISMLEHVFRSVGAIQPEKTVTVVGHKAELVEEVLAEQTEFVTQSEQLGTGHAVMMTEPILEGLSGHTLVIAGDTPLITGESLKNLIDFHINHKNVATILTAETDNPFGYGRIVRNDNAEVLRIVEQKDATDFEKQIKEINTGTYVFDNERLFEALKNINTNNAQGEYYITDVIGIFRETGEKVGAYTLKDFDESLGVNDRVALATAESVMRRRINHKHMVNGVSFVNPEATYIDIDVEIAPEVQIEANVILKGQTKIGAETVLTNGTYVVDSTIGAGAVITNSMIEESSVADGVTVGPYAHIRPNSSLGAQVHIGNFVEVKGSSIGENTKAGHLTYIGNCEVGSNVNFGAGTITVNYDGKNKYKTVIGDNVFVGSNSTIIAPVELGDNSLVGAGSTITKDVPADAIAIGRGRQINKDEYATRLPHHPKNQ
Hi there, I'd appreciate the recorded pIC50 for every entry that follows.
# log scale: pIC50 equals minus log10 of the concentration in mol/L

pIC50 for COc1cc(OC)c(S(=O)(=O)N2c3ccccc3Oc3ccccc32)cc1NC(=O)CCC(=O)O [Sulfonamide, 5] is 4.82

pIC50 for COc1cc(OC)c(S(=O)(=O)N(c2ccccc2)c2ccc(N)cc2)cc1NC(=O)CCC(=O)O [Sulfonamide, 3] is 4.40

pIC50 for COc1cc(O)c(S(=O)(=O)N2c3ccccc3CCC2C)cc1NC(=O)CCC(=O)O (stereo not given) [Sulfonamide, 4] is 5.33

* * *

Hi there, I'd appreciate the recorded pIC50 for every entry that follows.
molecular target: Bifunctional protein GlmU (Haemophilus influenzae (strain ATCC 51907 / DSM 11121 / KW20 / Rd)); experiment: Inhibition Assay; conditions: pH 7.35
Sequence (P43889 whole entry): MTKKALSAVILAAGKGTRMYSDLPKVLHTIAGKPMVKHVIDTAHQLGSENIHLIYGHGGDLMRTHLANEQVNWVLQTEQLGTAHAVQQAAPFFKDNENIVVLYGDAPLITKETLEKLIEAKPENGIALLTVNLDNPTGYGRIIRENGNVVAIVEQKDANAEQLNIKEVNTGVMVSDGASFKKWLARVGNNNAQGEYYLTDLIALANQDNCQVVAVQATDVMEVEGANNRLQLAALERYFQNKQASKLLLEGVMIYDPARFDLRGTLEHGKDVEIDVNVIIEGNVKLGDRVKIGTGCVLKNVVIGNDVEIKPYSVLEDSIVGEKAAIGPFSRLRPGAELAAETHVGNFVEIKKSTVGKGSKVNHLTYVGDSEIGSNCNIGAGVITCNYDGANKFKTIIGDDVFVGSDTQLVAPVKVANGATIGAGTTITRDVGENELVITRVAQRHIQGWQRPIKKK
# log scale: pIC50 equals minus log10 of the concentration in mol/L

pIC50 for COc1cc(OC)c(S(=O)(=O)N2c3ccccc3CC2C)cc1NC(C)=O (stereo not given) is 5.11

pIC50 for COc1cc(OC)c(S(=O)(=O)N(C)c2ccccc2)cc1NC(C)=O is 5.19

pIC50 for COc1cc(OC)c(S(=O)(=O)N(c2ccccc2)c2ccc(N)cc2)cc1NC(=O)CCC(=O)O [Sulfonamide, 3] is 6.40

pIC50 for COc1cc(O)c(S(=O)(=O)N2c3ccccc3CCC2C)cc1NC(=O)CCC(=O)O (stereo not given) [Sulfonamide, 4] is 6.55

pIC50 for COc1cc(OC)c(S(=O)(=O)N2c3ccccc3Oc3ccccc32)cc1NC(=O)CCC(=O)O [Sulfonamide, 5] is 7.64

* * *

target: Bifunctional protein GlmU (Escherichia coli) (UniProt P0ACC7); assay: Inhibition assay using GlmU bifuncation enzyme with various bacterial strains.; conditions: pH 7.35
Sequence (P0ACC7 whole entry, looked up): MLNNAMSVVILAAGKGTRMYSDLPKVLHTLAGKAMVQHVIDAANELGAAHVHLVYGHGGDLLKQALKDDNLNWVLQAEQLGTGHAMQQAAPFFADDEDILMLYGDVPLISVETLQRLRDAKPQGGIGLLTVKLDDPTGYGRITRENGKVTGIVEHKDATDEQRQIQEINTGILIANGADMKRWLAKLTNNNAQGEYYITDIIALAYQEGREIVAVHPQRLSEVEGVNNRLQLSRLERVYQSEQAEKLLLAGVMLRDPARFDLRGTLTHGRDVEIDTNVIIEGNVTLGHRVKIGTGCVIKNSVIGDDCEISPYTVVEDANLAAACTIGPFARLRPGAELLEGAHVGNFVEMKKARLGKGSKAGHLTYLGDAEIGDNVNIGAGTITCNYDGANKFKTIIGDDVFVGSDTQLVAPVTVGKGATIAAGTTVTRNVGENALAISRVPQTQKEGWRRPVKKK
readoutName: Kd (nM)
Quick reminder: number only, in nM, skip the unit.

Fill in: Bifunctional protein GlmU (Escherichia coli) (UniProt P0ACC7) Kd for COc1cc(OC)c(S(=O)(=O)N(C)c2ccccc2)cc1NC(C)=O = 1900
